Tested on: UACC-62 melanoma
Experiment: NCI tumour cell line growth inhibition, 48 h
Assign TGI to each entry below.

Task: What TGI value was documented for this compound, CSC1=C(SC)SC(=C2SC3=C(SC(=C4SCCS4)S3)S2)S1 ?
Output: > 100 µM

Task: Now this one: COc1cccc(CCn2c(N)c(-c3ccccc3)c3ccc([N+](=O)[O-])cc3c2=O)c1
Output: 30.7 µM

Task: Now this one: COc1ccc(-n2cc(-c3ccc(Cl)c(Cl)c3)nc2SCc2cccc(C#N)c2)cc1
Output: > 100 µM

Task: Now this one: CCOC(=O)c1nc2c(Cl)c3ncccc3cc2[nH]c1=O
Output: 50.4 µM

Task: Now this one: CCC1OC2C(CC=C(C)C)=C3OC(C)(O)C(C)(CC)C(OC(=O)c4ccccc4)C3=C3OC(=O)C=C1C32 (stereo unspecified)
Output: > 100 µM

Task: Now this one: CCCCCc1c(C)[nH]c(/C=C2\N=C(c3ccc[nH]3)C=C2CC)c1C
Output: 0.043 µM

Task: Now this one: CN=NN(C)C(=O)NC
Output: > 100 µM

Task: Now this one: CC(C)CC1[C@@H](OCc2ccccc2)COS(=O)N1Cc1ccccc1 (stereo partly specified)
Output: > 100 µM

Task: Now this one: CCOC(=O)CC1c2ccc(O)cc2OC(=O)C1c1ccc([N+](=O)[O-])cc1 (stereo unspecified)
Output: 84.4 µM

Task: Now this one: O=C1C(Cl)C(c2ccccc2)N1n1cnc2ccccc2c1=O (stereo unspecified)
Output: > 100 µM

Task: Now this one: N#CSc1nc[nH]c1C(N)=O
Output: > 100 µM
